List of pEC50 values.
- SYSTEM UNDER TEST: FXR (Rattus norvegicus)
- Sequence (Q62735 whole entry): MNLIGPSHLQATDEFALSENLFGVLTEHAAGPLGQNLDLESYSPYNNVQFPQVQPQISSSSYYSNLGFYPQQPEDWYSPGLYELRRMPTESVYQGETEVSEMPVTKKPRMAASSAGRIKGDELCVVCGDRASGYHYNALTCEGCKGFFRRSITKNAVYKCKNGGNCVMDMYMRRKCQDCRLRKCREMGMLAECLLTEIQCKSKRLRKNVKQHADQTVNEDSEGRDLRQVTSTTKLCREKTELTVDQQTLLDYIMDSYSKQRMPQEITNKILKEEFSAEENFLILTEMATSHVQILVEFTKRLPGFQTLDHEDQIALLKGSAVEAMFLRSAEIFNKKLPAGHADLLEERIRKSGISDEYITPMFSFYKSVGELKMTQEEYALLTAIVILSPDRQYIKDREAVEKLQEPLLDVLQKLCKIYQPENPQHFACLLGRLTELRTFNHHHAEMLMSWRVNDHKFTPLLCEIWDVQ
- Sequence (P19793 whole entry partner): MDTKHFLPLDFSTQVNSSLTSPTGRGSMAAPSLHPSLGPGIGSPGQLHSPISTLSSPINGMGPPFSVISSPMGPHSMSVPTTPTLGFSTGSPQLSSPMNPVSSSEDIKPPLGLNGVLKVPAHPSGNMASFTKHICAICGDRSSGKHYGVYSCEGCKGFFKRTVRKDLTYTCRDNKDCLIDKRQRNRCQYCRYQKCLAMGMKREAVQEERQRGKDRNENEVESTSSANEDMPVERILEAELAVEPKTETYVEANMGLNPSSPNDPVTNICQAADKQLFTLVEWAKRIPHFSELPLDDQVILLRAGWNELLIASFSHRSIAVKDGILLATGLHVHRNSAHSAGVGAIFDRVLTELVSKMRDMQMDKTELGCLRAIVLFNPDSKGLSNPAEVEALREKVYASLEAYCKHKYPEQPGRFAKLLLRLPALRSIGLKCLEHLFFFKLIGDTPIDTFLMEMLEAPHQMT
- PROTOCOL SUMMARY: Transient transfection assay, FXR + RXR with liver bile acid transporter
- Format: cell-based
- CONDITION PARAMETERS: with the liver bile acid transporter
pEC50: −log10 of the molar value.

1. C[C@H](CCC(=O)O)[C@H]1CC[C@H]2[C@@H]3CC[C@@H]4C[C@H](O)CC[C@]4(C)[C@H]3C[C@H](O)[C@]12C :: ~4.30

*Q* In one line, give reported pEC50 of the entry `C[C@H](CCC(=O)O)[C@H]1CC[C@H]2[C@@H]3CC[C@@H]4C[C@H](O)CC[C@]4(C)[C@H]3CC[C@]12C` .
*A* ~4.30

Reference for the values: patent US20020132223A1
